Test system: MALME-3M melanoma
Assay: NCI-60 one-dose screen, 48 h
Details: 10 µM unless noted
Procedure: Cells are grown in 96 well plates and exposed to the test compound for 48 hours. Compounds are tested at a single concentration, which is 10^-5 M for most compounds. The reported endpoint is percent growth (GI% or GIPRCNT), where numbers from 0 - 100% represent growth inhibition, and numbers from -100% - 0 represent cell death. For example, a value of 40 represents 60% growth inhibition. A value of 0 means no net growth occurred over the course of the experiment. […]
This is part of a sample that, as a whole, favours compounds with a hit. Of some 83,000 tested, about 20% had one in any assay. Calls of active or inactive are those of the source. The calls were made as follows: active = growth percent below 10; inactive = the rest.
Outcome codes: true (active), false (inactive)

[
  {
    "molecule": "CCC1(NC(=O)c2cc(F)c(F)c(F)c2F)C(=O)NC(=O)N(C(C)C)C1=O (stereo not given)",
    "measured.target": "MALME-3M melanoma",
    "assigned.label": "false"
  },
  {
    "molecule": "CCC(=O)C(CC(C)[N+](C)(C)C)(c1ccccc1)c1ccccc1 (stereo not given)",
    "measured.target": "MALME-3M melanoma",
    "assigned.label": "false"
  },
  {
    "molecule": "C=CC[PH+](c1ccccc1)c1ccccc1.C=CC[PH+](c1ccccc1)c1ccccc1.[Pt+2].[S-]c1ncccn1.[S-]c1ncccn1",
    "measured.target": "MALME-3M melanoma",
    "assigned.label": "true"
  },
  {
    "molecule": "COc1ccc2c(c1)c(-c1nc(-c3cn(C)c4ncccc34)cs1)cn2CCCCN1CCOCC1",
    "measured.target": "MALME-3M melanoma",
    "assigned.label": "true"
  },
  {
    "molecule": "C=C[Se]CC(=O)/C=C/c1ccccc1",
    "measured.target": "MALME-3M melanoma",
    "assigned.label": "false"
  }
]

* * *

The following compounds are listed with their measured growth values.
Tested on: OVCAR-5 ovarian
Test: NCI-60 one-dose screen, 48 h (100 = growth as untreated, 0 = no growth, -100 = all killed)
Conditions: 10 µM unless noted
Protocol: Growth inhibition of the OVCAR-5 human tumor cell line is measured as a screen for anti-cancer activity. Cells are grown in 96 well plates and exposed to the test compound for 48 hours. Compounds are tested at a single concentration, which is 10^-5 M for most compounds. The reported endpoint is percent growth (GI% or GIPRCNT), where numbers from 0 - 100% represent growth inhibition, and numbers from -100% - 0 represent cell death. For example, a value of 40 represents 60% growth inhibition. […]
Compounds without any hit were thinned out: in the full panel of roughly 83,000, 20% have a hit.

[
  {
    "compound": "C[C@]12CC[C@H]3[C@@H](C[C@@H]4SC(Nc5ccccc5)=N[C@@]45C/C(=N/O)CC[C@]35C)[C@@H]1CCC2=O",
    "unit.abbrev": "%",
    "growth": 99.7
  },
  {
    "compound": "ClCc1ccc(Cl)c(Cl)c1",
    "unit.abbrev": "%",
    "growth": 98.7
  },
  {
    "compound": "CCOP(=O)(NC)OCC",
    "unit.abbrev": "%",
    "growth": 91.5
  },
  {
    "compound": "CC(=O)c1cccc(S(=O)(=O)F)c1",
    "unit.abbrev": "%",
    "growth": 90.5
  },
  {
    "compound": "CCOC(=O)c1cncn1C(C)c1ccccc1 (stereo unspecified)",
    "unit.abbrev": "%",
    "growth": 105
  },
  {
    "compound": "NC(=O)Oc1cc(OC(N)=O)cc(N(CCCl)CCCl)c1",
    "unit.abbrev": "%",
    "growth": 91.3
  }
]
